These data points were gathered from paper PMC7221086.

# TARGET_UNDER_TEST: mTFF3 (Homo sapiens, UniProt Q07654, C78S)
# Construct: with an N-terminal PelB signal peptide, no interchain Cys, and a C-terminal His6-tag; PelB signal peptide (N, cleaved yes); His6 (C, cleaved yes); made in house; host or cells: E. coli T7 Express, periplasmic extraction
# Sequence (Q07654 22-80 C78S): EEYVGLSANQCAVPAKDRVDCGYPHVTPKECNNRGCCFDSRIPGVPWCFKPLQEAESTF
# PROTOCOL_DESCRIPTION: Tryptophan fluorescence quenching assay, mTFF3
# Type: binding
# PARTICULARS: Kd, pH 7.4, 25 °C
pKd: −log10 of the molar value.
ASSAY_ENDPOINT: pKd

1) CC(=O)N[C@H]1[C@@H](O[C@@H]2[C@H](O)[C@@H](O)C(O)O[C@@H]2CO)O[C@H](CO)[C@@H](O)[C@@H]1O (stereo partly drawn) [GlcNAc-α-1,4-Gal]	4.24
